Where these numbers come from: ChEMBL document CHEMBL4610008

biological target: Glutamate receptor ionotropic, NMDA 2B (Homo sapiens, UniProt Q05586+Q13224); assay: Displacement of [3H]ifenprodil from human recombinant GluN2B expressed in mouse L(tk-) cell membranes co-expressing GluN1a incubated for 120 mins by scintillation counting method
Sequence (Q13224 whole entry, one chain of several): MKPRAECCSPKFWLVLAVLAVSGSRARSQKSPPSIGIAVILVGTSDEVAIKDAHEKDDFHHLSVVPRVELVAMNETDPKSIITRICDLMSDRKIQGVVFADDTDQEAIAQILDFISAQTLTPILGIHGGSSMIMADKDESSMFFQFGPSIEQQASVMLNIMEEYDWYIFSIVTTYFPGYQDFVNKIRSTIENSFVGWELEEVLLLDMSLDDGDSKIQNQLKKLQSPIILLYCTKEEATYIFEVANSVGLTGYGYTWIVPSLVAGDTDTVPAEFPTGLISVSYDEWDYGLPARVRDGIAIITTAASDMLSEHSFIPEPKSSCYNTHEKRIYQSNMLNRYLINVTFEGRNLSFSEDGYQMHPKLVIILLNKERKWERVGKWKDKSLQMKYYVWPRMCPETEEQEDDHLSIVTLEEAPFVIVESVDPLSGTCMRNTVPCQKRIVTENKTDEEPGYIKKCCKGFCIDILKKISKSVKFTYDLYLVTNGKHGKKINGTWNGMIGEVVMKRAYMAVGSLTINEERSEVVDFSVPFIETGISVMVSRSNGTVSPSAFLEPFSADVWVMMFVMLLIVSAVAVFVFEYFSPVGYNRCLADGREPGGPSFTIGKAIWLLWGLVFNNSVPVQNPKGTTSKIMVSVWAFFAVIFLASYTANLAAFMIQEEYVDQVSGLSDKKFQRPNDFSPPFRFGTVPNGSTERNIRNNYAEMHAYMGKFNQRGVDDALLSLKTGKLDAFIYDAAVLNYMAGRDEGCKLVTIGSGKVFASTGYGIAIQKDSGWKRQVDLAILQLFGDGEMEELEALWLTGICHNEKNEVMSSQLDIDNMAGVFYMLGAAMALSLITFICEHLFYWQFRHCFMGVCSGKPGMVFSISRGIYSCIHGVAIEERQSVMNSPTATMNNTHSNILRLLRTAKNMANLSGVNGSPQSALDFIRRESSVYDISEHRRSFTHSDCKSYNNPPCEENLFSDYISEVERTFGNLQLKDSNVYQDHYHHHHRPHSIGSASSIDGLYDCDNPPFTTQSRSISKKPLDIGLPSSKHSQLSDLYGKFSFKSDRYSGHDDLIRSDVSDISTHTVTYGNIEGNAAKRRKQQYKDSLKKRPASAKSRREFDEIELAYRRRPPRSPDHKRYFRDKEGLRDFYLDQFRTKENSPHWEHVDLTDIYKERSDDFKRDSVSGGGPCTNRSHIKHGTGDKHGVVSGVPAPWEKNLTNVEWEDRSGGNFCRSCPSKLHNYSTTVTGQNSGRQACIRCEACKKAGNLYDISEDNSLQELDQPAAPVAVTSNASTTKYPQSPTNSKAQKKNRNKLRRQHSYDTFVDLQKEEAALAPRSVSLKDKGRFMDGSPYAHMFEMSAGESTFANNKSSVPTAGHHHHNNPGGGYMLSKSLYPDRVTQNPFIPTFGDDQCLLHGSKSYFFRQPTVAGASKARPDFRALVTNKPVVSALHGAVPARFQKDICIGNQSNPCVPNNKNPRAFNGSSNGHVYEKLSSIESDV
METRIC: Ki (nM)
Give just the number in nM; leave the unit off.

Data request: Fill in: Ki on Glutamate receptor ionotropic, NMDA 2B (Homo sapiens, UniProt Q05586+Q13224), entry CN(CCc1ccccc1)C1CCc2ccsc2CC1 (centres undefined)
Data returned: 130

Data request: Fill in: Ki on Glutamate receptor ionotropic, NMDA 2B (Homo sapiens, UniProt Q05586+Q13224), entry CCN(CCc1ccccc1)C1CCc2ccsc2CC1 (centres undefined)
Data returned: 196

Data request: Fill in: Ki on Glutamate receptor ionotropic, NMDA 2B (Homo sapiens, UniProt Q05586+Q13224), entry Brc1cc2c(s1)CCC(NCCCCc1ccccc1)CC2 (centres undefined)
Data returned: 23

Data request: Fill in: Ki on Glutamate receptor ionotropic, NMDA 2B (Homo sapiens, UniProt Q05586+Q13224), entry OCc1cc2c(s1)CCC(NCCCc1ccccc1)CC2 (centres undefined)
Data returned: 183

Data request: Fill in: Ki on Glutamate receptor ionotropic, NMDA 2B (Homo sapiens, UniProt Q05586+Q13224), entry CCN(CCCCc1ccccc1)C1CCc2ccsc2CC1 (centres undefined)
Data returned: 33

Data request: Fill in: Ki on Glutamate receptor ionotropic, NMDA 2B (Homo sapiens, UniProt Q05586+Q13224), entry CN(CCc1ccccc1)C1CCc2cc(CO)sc2CC1 (centres undefined)
Data returned: 726

Data request: Fill in: Ki on Glutamate receptor ionotropic, NMDA 2B (Homo sapiens, UniProt Q05586+Q13224), entry CN(CCCc1ccccc1)C1CCc2cc(CO)sc2CC1 (centres undefined)
Data returned: 141

Data request: Fill in: Ki on Glutamate receptor ionotropic, NMDA 2B (Homo sapiens, UniProt Q05586+Q13224), entry CCN(CCCc1ccccc1)C1CCc2ccsc2CC1 (centres undefined)
Data returned: 51

Data request: Fill in: Ki on Glutamate receptor ionotropic, NMDA 2B (Homo sapiens, UniProt Q05586+Q13224), entry Brc1cc2c(s1)CCC(NCCCc1ccccc1)CC2 (centres undefined)
Data returned: 13

Data request: Fill in: Ki on Glutamate receptor ionotropic, NMDA 2B (Homo sapiens, UniProt Q05586+Q13224), entry Oc1ccc(-c2cc3c(s2)CCC(NCCCc2ccccc2)CC3)cc1 (centres undefined)
Data returned: 60

Data request: Fill in: Ki on Glutamate receptor ionotropic, NMDA 2B (Homo sapiens, UniProt Q05586+Q13224), entry CCN(Cc1ccccc1)C1CCc2ccsc2CC1 (centres undefined)
Data returned: 61

Data request: Fill in: Ki on Glutamate receptor ionotropic, NMDA 2B (Homo sapiens, UniProt Q05586+Q13224), entry CN(Cc1ccccc1)C1CCc2ccsc2CC1 (centres undefined)
Data returned: 72

Data request: Fill in: Ki on Glutamate receptor ionotropic, NMDA 2B (Homo sapiens, UniProt Q05586+Q13224), entry OCc1cc2c(s1)CCC(NCCCCc1ccccc1)CC2 (centres undefined)
Data returned: 764

Data request: Fill in: Ki on Glutamate receptor ionotropic, NMDA 2B (Homo sapiens, UniProt Q05586+Q13224), entry c1ccc(CCCCNC2CCc3ccsc3CC2)cc1 (centres undefined)
Data returned: 11

Data request: Fill in: Ki on Glutamate receptor ionotropic, NMDA 2B (Homo sapiens, UniProt Q05586+Q13224), entry CN(CCCCc1ccccc1)C1CCc2ccsc2CC1 (centres undefined)
Data returned: 9

Data request: Fill in: Ki on Glutamate receptor ionotropic, NMDA 2B (Homo sapiens, UniProt Q05586+Q13224), entry Clc1ccc2c(c1)CCC(NCCCc1ccccc1)CC2 (centres undefined)
Data returned: 2.1

Data request: Fill in: Ki on Glutamate receptor ionotropic, NMDA 2B (Homo sapiens, UniProt Q05586+Q13224), entry CN(CCCc1ccccc1)C1CCc2ccsc2CC1 (centres undefined)
Data returned: 6

Data request: Fill in: Ki on Glutamate receptor ionotropic, NMDA 2B (Homo sapiens, UniProt Q05586+Q13224), entry c1ccc(CCCNC2CCc3ccsc3CC2)cc1 (centres undefined)
Data returned: 5.9

Data request: Fill in: Ki on Glutamate receptor ionotropic, NMDA 2B (Homo sapiens, UniProt Q05586+Q13224), entry c1ccc(CCNC2CCc3ccsc3CC2)cc1 (centres undefined)
Data returned: 33
